Target: T1, human IL-4Rα (human, UniProt P24394 26-232)
T1 construct: also called Hu IL-4Rα; hIL-4Rα
T1 sequence: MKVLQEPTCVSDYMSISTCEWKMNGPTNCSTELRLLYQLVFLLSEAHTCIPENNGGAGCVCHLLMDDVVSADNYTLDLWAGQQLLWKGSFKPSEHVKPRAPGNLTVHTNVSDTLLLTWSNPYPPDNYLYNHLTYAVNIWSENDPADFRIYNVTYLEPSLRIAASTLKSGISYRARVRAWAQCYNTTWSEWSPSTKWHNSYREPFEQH
Assay: SPR, Carterra LSA;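 further: antibodies captured on an anti-human Fc sensor chip, antigen injected at several concentrations, association and dissociation rates fitted with a 1:1 Langmuir model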
PARAMETER_MEASURED: Kd (nM)
Answer format: numeric, nM implied, no suffix.

Here's what some known entries look like.
Construct 36 (mAb469) (antibody, IgG4, V domains shown, VH/VL only) VH: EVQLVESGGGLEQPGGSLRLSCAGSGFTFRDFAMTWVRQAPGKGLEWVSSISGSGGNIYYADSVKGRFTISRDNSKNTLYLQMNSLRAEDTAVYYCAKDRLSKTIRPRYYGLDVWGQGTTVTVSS VL: DIVMTQSPLSLPVTPGEPASISCRSSQSLLYSIGKNYVDWYLQKSGQSPQLLIYEGNNRASGVPDRFSGSGSGTDFTLKISRVEAEDVGFYYCMQSLTSPYTFGQGTKLEIK    0.0112
Construct 6 (mAb415) (antibody, IgG4, V domains shown, VH/VL only) VH: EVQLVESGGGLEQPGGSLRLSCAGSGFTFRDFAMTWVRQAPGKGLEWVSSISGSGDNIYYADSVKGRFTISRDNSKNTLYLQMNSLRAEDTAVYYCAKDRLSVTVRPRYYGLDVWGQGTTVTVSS VL: DIVMTQSPLSLPVTPGEPASISCRSSQGLLYSIGYNYVDWYLQKSGQSPQLLIYLGNKRASGVPDRFSGSGSGTDFTLKISRVEAEDVGFYYCMQSLQTPYTFGQGTKLEIK    0.0115
Construct 18 (mAb426) (antibody, IgG4, V domains shown, VH/VL only) VH: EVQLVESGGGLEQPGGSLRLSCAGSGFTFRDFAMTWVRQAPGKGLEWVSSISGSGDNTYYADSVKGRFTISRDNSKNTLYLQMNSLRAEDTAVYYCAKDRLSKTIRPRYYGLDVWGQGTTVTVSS VL: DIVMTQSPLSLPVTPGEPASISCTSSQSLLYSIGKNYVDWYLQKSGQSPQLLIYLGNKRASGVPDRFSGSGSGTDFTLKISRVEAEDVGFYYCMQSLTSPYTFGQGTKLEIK    0.03

Which Kd reading was recorded for the binder Construct 26 (mAb434) (antibody, IgG4, V domains shown, VH/VL only) VH: EVQLVESGGGLEQPGGSLRLSCAGSGFTFRDFAMTWVRQAPGKGLEWVSSISGGGGSTYYADSVKGRFTISRDNSKNTLYLQMNSLRAEDTAVYYCAKDRLSIAVRPRYYGLDVWGQGTTVTVSS VL: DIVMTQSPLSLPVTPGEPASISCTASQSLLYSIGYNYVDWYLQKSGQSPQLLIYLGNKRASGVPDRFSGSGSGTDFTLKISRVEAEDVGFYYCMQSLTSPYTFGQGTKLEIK ?
0.00883

Which value of Kd has been reported for Construct 30 (mAb439) (antibody, IgG4, V domains shown, VH/VL only) VH: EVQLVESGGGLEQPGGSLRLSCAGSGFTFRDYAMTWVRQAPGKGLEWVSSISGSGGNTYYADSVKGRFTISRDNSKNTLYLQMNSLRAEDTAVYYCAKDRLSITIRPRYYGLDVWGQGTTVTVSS VL: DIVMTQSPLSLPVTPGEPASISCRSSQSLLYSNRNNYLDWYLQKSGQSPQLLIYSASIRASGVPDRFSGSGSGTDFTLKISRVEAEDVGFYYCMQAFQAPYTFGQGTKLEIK in the records?
0.011
